Study system: affinity purified β2GPI-dependent antiphospholipid antibody
Method summary: Competitive inhibition ELISA: recombinant β2GPI proteins compete for antibody binding to coated full length recombinant β2GPI
Parameters: species or system human
Stated conditions: Ab 6701; read-out: 50% (concentration to give 50% inhibition)
Quantity name: IC50 (µM)
Answer with a number only, understood to be in µM.

Inquiry: Look up IC50 for this molecule: 1----: recombinant β2GPI protein with domain 1 only (SEQ ID NO:4 region), His6 tail (protein) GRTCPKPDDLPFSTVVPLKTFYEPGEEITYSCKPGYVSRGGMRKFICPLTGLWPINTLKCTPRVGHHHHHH
Reply text: 4
